target: beta-catenin (human); experiment: fluorescence polarization
Sequence (B6V8E6 146-665 limits assumed): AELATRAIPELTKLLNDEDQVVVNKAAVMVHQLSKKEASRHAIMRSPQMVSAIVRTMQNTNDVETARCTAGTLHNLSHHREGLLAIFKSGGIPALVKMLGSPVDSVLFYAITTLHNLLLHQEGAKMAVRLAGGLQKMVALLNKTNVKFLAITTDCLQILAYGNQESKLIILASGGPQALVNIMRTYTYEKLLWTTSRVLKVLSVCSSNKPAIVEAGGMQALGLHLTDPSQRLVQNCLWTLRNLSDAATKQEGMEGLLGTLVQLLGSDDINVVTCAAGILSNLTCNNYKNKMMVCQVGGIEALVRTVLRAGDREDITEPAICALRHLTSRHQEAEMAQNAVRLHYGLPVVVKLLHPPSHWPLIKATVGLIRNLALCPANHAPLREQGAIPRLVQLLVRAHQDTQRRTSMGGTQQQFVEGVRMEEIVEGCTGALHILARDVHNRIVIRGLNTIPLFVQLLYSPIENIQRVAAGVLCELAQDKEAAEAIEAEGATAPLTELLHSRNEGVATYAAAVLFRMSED
*1 amine or outer side, *2 acyl side, *3 side chain or, on linkers, in order; H or OH if unused. Bridges are numbered along the chain shown (N, C = ends). Primed or numbered codes have the meaning given here. [ ]: non-standard residue; d: D form. PyrS2(6) = (S)-3-amino-1-((pent-4-en-1-yloxy)carbonyl)pyrrolidine-3-carboxylic acid, stapled with another olefin-containing amino acid residue through the olefin group, O=C(OCCCC=[*:3])N1CC[C@@](N[*:1])(C(=O)[*:2])C1; B5(4) = 2-amino-2-(pent-4-en-1-yl)hept-6-enoic acid, stapled through each of its two olefin groups with other olefin-containing amino acid residues, O=C(C(CCCC=[*:3])(CCCC=[*:4])N[*:1])[*:2]; PyrS2″ = (S)-3-amino-1-((pent-4-en-1-yloxy)carbonyl)pyrrolidine-3-carboxylic acid (olefin stapling residue), C=CCCCOC(=O)N1CC[C@@](N[*:1])(C(=O)[*:2])C1; PyrS2(5) = (S)-3-amino-1-((pent-4-en-1-yloxy)carbonyl)pyrrolidine-3-carboxylic acid, C=CCCCOC(=O)N1CC[C@@](N[*:1])(C(=O)[*:2])C1; B5(5) = 2-amino-2-(pent-4-en-1-yl)hept-6-enoic acid (two olefin arms), C=CCCCC(CCCC=C)(N[*:1])C(=O)[*:2]; 2F3MeF″ = aromatic residue, Cc1cccc(C[C@H](N[*:1])C(=O)[*:2])c1F; Phe(3-COOH) = N[C@@H](Cc1cccc(C(=O)O)c1)C(=O)O; Bta = N[C@@H](Cc1csc2ccccc12)C(=O)O; αAllylPro = C=CC[C@@]1(C(=O)O)CCCN1; tBuAla = CC(C)(C)C[C@H](N)C(=O)O; 3Thi = N[C@@H](Cc1ccsc1)C(=O)O; TriAzLys(3) = not defined here; hSer = N[C@@H](CCO)C(=O)O; 2F3MeF(4) = Phe analogue; BztA″ = aromatic residue; AsnR = not defined here; GlnR = not defined here; sAla = not defined here; B5 = not defined here
IC50 values by entry

Example cases with answers are listed next.
Ac-[αAllylPro]D[tBuAla][B5(4)]D[Phe(3-COOH)]AAF[GlnR][PyrS2(6)][3Thi][Bta]K-NH2 (bridge 10-14; not fully specified (bridges); printed as Ac-PL3-Asp-Npg-B5-Asp-3COOHF-Ala-Ala-Phe-GlnR*3-PyrS2-3Thi-BztA-Lys*3-NH2; reading uncertain) [I-33]	< 50 nM
Ac-[αAllylPro][hSer][tBuAla][B5]D[Phe(3-COOH)]AAFK[PyrS2(5)][2F3MeF″][BztA″][GlnR]LS-NH2 (bridge 10-14; not fully specified (bridges); printed as Ac-PL3-Hse-Npg-B5-Asp-3COOHF-Ala-Ala-Phe-Lys*3-PyrS2-2F3MeF-BztA-GlnR*3-Leu-Ser-NH2; reading uncertain; also: Lys10 and GlnR14 marked *3) [I-145]	> 1000 nM
Ac-[αAllylPro]D[tBuAla][B5(4)]D[Phe(3-COOH)]AAF[sAla][PyrS2(6)][2F3MeF(4)][Bta][TriAzLys(3)]-NH2 (triazole 10-14; not fully specified (bridges); printed as Ac-PL3-Asp-Npg-B5-Asp-3COOHF-Ala-Ala-Phe-sAla*3-PyrS2-2F3MeF-BztA-TriAzLys*3-NH2; reading uncertain) [I-25]	< 50 nM

Using the record for Ac-[αAllylPro]D[tBuAla][B5]D[Phe(3-COOH)]AAFK[PyrS2″][2F3MeF″][BztA″][GlnR]LS-NH2 (bridge 10-14; not fully specified (bridges); printed as Ac-PL3-Asp-Npg-B5-Asp-3COOHF-Ala-Ala-Phe-Lys*3-PyrS2-2F3MeF-BztA-GlnR*3-Leu-Ser-NH2; reading uncertain; also: Lys10 and GlnR14 marked *3) [I-136] , report its IC50.
< 50 nM

Would you mind doing Ac-[αAllylPro]D[tBuAla][B5(5)]D[Phe(3-COOH)]AAFK[PyrS2(5)][3Thi][Bta][AsnR]-NH2 (bridge 10-14; not fully specified (bridges); printed as Ac-PL3-Asp-Npg-B5-Asp-3COOHF-Ala-Ala-Phe-Lys*3-PyrS2-3Thi-BztA-AsnR*3-NH2; reading uncertain) [I-34] as well?
< 50 nM

Data provenance is patent US20260207704A1.
